Molecular target: lactose permease (LacY) (Escherichia coli, UniProt P02920, C154G)
Construct: LacY with all six native Trp residues and a C-terminal His6-Tag, DDM-solubilized, purified from PE-containing cells (correct topology)
Assay: Trp → α-NPG FRET (quenching of W151) on purified protein in DDM micelles
reported-endpoint: Kd

Given O=[N+]([O-])c1ccc(O[C@H]2O[C@H](CO)[C@H](O)[C@H](O)[C@H]2O)cc1 [α-NPG] , state its recorded Kd.
5.9 µM
